System: 3D7
test-description: qHTS profiling for inhibitors of Plasmodium falciparum proliferation (AID 504749); further: nearly all actives have a fitted effect of over 60% in size
condition-summary: P. falciparum in erythrocytes, SYBR Green DNA, 72 h; series mostly up to 28.7 µM
Results filed as inconclusive are left out. Active and inactive are the calls of the source. The call rests on the fitted dose curve; in most records, active means well fitted inhibition curve with a large enough effect; inconclusive means small, poorly fitted or top-dose-only effect; inactive means flat fitted curve, though single readings scatter.
Labels: true for active, false for inactive

- O=C(O)COc1ccccc1/C=N/NC(=O)c1ccncc1: false
- O=C(O)CCC/C=C\C[C@@H]1[C@@H](/C=C/[C@@H](O)COc2cccc(C(F)(F)F)c2)[C@H](O)C[C@@H]1O: false
- C(=C\c1ccncc1)/c1ccccc1: false
- CN(Cc1ccccc1)Cc1ccccc1: false
- O=S(=O)(O)CC(S)CS (stereo unspecified): false
- CC(C)CCC[C@@H](C)[C@H]1CC[C@H]2[C@@H]3CC=C4C[C@@H](O)CC[C@]4(C)[C@H]3CC[C@]12C: false
- c1ccc(-n2cnnn2)cc1: false
- COc1cc(C)c(/C=C/C(C)=C/C=C/C(C)=C/C(=O)O)c(C)c1C: false
- FC(F)(F)C(F)(F)C(F)(F)C(F)(F)C(F)(F)C(F)(F)F: false
- CCCCCCCCCCCC(=O)OCC(O)CO (stereo unspecified): false
- Cc1cc2nc3c(=O)[nH]c(=O)nc-3n(C[C@H](O)[C@H](O)[C@H](O)COP(=O)(O)OP(=O)(O)OC[C@H]3O[C@@H](n4cnc5c(N)ncnc54)[C@H](O)[C@@H]3O)c2cc1C: false
- CO[C@H]1C[C@@H]2CC[C@@H](C)[C@@](O)(O2)C(=O)C(=O)N2CCCC[C@H]2C(=O)O[C@H]([C@H](C)C[C@@H]2CC[C@@H](OC(=O)C(C)(CO)CO)[C@H](OC)C2)CC(=O)[C@H](C)/C=C(\C)[C@@H](O)[C@@H](OC)C(=O)[C@H](C)C[C@H](C)/C=C/C=C/C=C/1C: false
- CC(C)CCCC(C)NC(C)C (stereo unspecified): false
- CCCCC: false
- [O-][N+](=Nc1ccccc1)c1ccccc1: false
- FC(F)(F)COCC(F)(F)F: false
- O=C1[O][Bi][O]c2ccccc21: false
- O=C(OCc1ccccc1)c1ccc(O)cc1: false
- COC(=O)CCC[N+](C)(C)C: false
- CC(C)=CCC/C(C)=C/CC/C(C)=C/CC/C=C(\C)CC/C=C(\C)CCC=C(C)C: false
- CC1C(=O)CC2C3(C)CCC2(C(C)C(=O)O)C(=O)C13 (stereo unspecified): false
- CC(C)(COP(=O)(O)OP(=O)(O)OC[C@H]1O[C@@H](n2cnc3c(N)ncnc32)[C@H](O)[C@@H]1OP(=O)(O)O)C(O)C(=O)NCCC(=O)NCCS (stereo partly specified): false
- CCCCCCCCCCCCOCCCN: false
- CC(=O)[O][Al][O]C(C)=O: false
- O=C1c2ccccc2C(=O)C1c1ccc(F)cc1: false
- CC1=CC(=C(c2ccc(N)cc2)c2ccc(N)cc2)C=CC1=N: true
- CC(=O)Oc1cccc2c1C(=O)c1c(OC(C)=O)cc(C(=O)O)cc1C2=O: false
- CC/C(=C(/CC)c1ccc(OP(=O)(O)O)cc1)c1ccc(OP(=O)(O)O)cc1: false
- Nc1ccc(N=Nc2ccccc2)c(N)n1: false
- NCC(O)CC(=O)O (stereo unspecified): false
- CC(/C=C/C=C(\C)C(=O)O[C@@H]1O[C@H](CO[C@@H]2O[C@H](CO)[C@@H](O)[C@H](O)[C@H]2O)[C@@H](O)[C@H](O)[C@H]1O)=C\C=C\C=C(C)\C=C\C=C(/C)C(=O)O[C@@H]1O[C@H](CO[C@@H]2O[C@H](CO)[C@@H](O)[C@H](O)[C@H]2O)[C@@H](O)[C@H](O)[C@H]1O: false
- COc1cc2c(cc1OC)[C@@H](Cc1cc(OC)c(OC)c(OC)c1)[N+](C)(CCCOC(=O)CC/C=C/CCC(=O)OCCC[N+]1(C)CCc3cc(OC)c(OC)cc3[C@H]1Cc1cc(OC)c(OC)c(OC)c1)CC2 (stereo partly specified): false
- O=C1c2ccccc2CN2C(=O)c3ccccc3CN12: false
- CNC(=O)[C@H](Cc1c[nH]c2ccccc12)NC(=O)[C@@H](CC(=O)NO)CC(C)C: true
- CCCCCCCCCCCCCCCCCC(=O)OC[C@@H](O)[C@H]1OC[C@H](O)[C@H]1O: false
- NC(N)=O: false
- COc1ccc(/C=N/NC(=O)c2ccncc2)c(C(=O)O)c1OC: false
- CN1C(C(=O)Nc2ccccn2)C(=O)c2sc(Cl)cc2S1(=O)=O (stereo unspecified): false
- O=C(OCc1ccccc1)c1cccnc1: false
- CCCCC/C=C\C/C=C\C/C=C\CCCCC(=O)O: false
- Cc1c(Cl)cccc1Nc1ncccc1C(=O)O: false

----------
Tested on: astro
test-description: Drug repurposing screens with cells derived from glioblastoma tumor samples (AID 1345199); further: nearly all actives have a fitted effect of over 40% in size
condition-summary: viability, ATP luminescence, 48 h; series mostly up to 45.9 µM
Results filed as inconclusive are left out. Active and inactive are the calls of the source. Calls come from the whole dose curve; as a rule, active = well fitted inhibition curve with a large enough effect; inconclusive = small, poorly fitted or top-dose-only effect; inactive = flat fitted curve, though single readings scatter.
Labels: Y for active, N for inactive

- O[C@@H]([C@H](O)[C@H](O)CBr)[C@H](O)CBr: N
- FCOC(C(F)(F)F)C(F)(F)F: N
- Cn1cc(NC(=O)c2cc(NC(=O)c3cc(NC=O)cn3C)cn2C)cc1C(=O)NCCC(=N)N: N
- CCN(CC)C(=S)S: N
- Cn1c(O)c(N=NC(N)=S)c2ccccc21: N
- COC(=O)CCC[N+](C)(C)C: N
- C=CC1=C(C(=O)O)N2C(=O)[C@@H](NC(=O)/C(=N\O)c3csc(N)n3)[C@H]2SC1 (stereo in doubt): N
- CCC(=O)c1ccc2c(c1)N(CCCN1CCN(CCO)CC1)c1ccccc1S2: Y

----------
study-system: Glucocorticoid receptor (Homo sapiens) (UniProt P04150)
Sequence (P04150 whole entry, looked up): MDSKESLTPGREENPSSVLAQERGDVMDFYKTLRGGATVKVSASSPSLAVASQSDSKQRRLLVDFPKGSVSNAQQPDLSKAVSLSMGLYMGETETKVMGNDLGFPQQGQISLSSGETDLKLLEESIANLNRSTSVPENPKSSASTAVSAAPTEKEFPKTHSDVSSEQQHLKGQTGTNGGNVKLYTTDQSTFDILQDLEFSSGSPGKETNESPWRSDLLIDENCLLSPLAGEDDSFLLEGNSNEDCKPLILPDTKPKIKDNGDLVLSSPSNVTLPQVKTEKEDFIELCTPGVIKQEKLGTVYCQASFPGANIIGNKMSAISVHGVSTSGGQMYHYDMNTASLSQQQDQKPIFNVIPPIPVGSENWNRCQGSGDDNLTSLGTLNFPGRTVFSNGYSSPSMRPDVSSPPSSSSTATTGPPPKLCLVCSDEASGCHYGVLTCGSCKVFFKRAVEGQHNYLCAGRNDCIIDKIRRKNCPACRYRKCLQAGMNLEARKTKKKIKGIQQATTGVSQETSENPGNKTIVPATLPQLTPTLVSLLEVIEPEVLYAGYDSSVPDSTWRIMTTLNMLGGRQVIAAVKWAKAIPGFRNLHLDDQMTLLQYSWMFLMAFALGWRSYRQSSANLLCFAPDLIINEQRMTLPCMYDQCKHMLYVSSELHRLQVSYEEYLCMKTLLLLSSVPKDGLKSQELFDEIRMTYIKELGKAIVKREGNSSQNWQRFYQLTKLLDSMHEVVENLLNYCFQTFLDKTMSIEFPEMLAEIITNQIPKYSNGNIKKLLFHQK
test-description: GR-EFC Redistribution (AID 451); further: potency means the concentration at half of the fitted maximal effect
condition-summary: CHO-K1 GR-EFC translocation, beta-gal luminescence, 2 h
Procedure: NIH Molecular Libraries Screening Centers Network [MLSCN] NIH Chemical Genomics Center [NCGC] The glucocorticoid receptor (GR) is a cytoplasmic receptor that belongs to the nuclear receptor family of ligand-dependent transcription factors. […] GR-translocation was measured beta-gal enzyme activity using the PathHunter Detection Kit containing cell membrane permeablizing reagent and beta-gal substrate (DiscoveRx, Fremont, CA). […] Read plate in luminescence mode in ViewLux plate reader (PerkinElmer) […]
Activity calls are given as the source filed them. Calls follow the shape of the full dose curve.
property-name: Potency

* O=P(O)(O)OP(=O)(O)O | > 9.22 µM (inactive)
* Cc1cc(C)c(NC(=O)C[C@H](CC(=O)O)c2cccc3ccccc23)c(C(=O)N2CCC3(CCCC3)CC2)c1 | > 46 µM (inactive)
* COc1cc(S(C)=O)ccc1-c1nc2ncccc2[nH]1 (stereo unspecified) | > 20.6 µM (inactive)
* CN1C(=O)OC(C)(C)C1=O | > 20.6 µM (inactive)
* CC(=O)N=c1sc(S(N)(=O)=O)nn1C | > 20.6 µM (inactive)
* CC1(C)S[C@@H]2[C@H](NC(=O)C3(N)CCCCC3)C(=O)N2[C@H]1C(=O)O | > 20.6 µM (inactive)
* O=C(O)CCC(=O)c1ccc(-c2ccccc2)cc1 | > 20.6 µM (inactive)
* CC(=O)Oc1cc(C(F)(F)F)ccc1C(=O)O | > 20.6 µM (inactive)
* Cc1cc(-c2ccc(N=Nc3ccc4c(S(=O)(=O)O)cc(S(=O)(=O)O)c(N)c4c3O)c(C)c2)ccc1N=Nc1ccc2c(S(=O)(=O)O)cc(S(=O)(=O)O)c(N)c2c1O | > 46 µM (inactive)
* CCCOc1cc(N)ccc1C(=O)OCCN(CC)CC | > 20.6 µM (inactive)
* COc1ccc(C[C@H](C)NC[C@@H](O)c2ccc(O)c(NC=O)c2)cc1 | > 46 µM (inactive)

----------
test-description: qHTS assay for cell viability of HEK293 cells (AID 743288); further: on the % scale 0 is the no-effect control and ±100 the full control effect; nearly all actives have a fitted effect of over 50% in size
condition-summary: ATP luminescence (CellTiter-Glo), 18 h; stronger effect = lower value
Text: National Center for Advancing Translational Sciences [NCATS] NIH Chemical Genomics Center [NCGC] U.S. Environmental Protection Agency [EPA] National Institutes of Environmental Health Sciences [NIEHS] National Toxicology Program [NTP] […] The CellTiter-Glo Luminescent Cell Viability Assay (Promega, Madison, WI) is a homogeneous method to determine the number of viable cells in culture based on quantitation of the ATP present, which signals the presence of metabolically active cells. […]
Inconclusive results are not listed.
property-name: max response (%)

- NCCO/C=C/[C@H](N)C(=O)O: -5.56
- CO/N=C(/C(=O)N[C@@H]1C(=O)N2C(C(=O)O)=C(COC(N)=O)CS[C@H]12)c1ccco1: 2.57
- C[C@H](CCC(=O)O)[C@H]1CC[C@H]2[C@@H]3[C@H](O)C[C@@H]4C[C@H](O)CC[C@]4(C)[C@H]3C[C@H](O)[C@]12C: -4.94
- CCOC(C)OCC: 7.3
- NC(N)=O: 0.964
- Cc1ccc(S(=O)(=O)NCl)cc1: -7.16
- Cc1ccc(S(=O)(=O)O)cc1C: 0.0836
- CC(C)[C@@H]1CC[C@@H](C)C[C@H]1O: -12.7
- CN(CCO)CC(O)Cn1cnc2c1c(=O)n(C)c(=O)n2C (stereo not drawn) (tested in a mixture with another compound): -3.27
- C[Si](C)(C)O[Si](C)(C)C: -0.467
- CC(C)CCC[C@@H](C)[C@H]1CC[C@H]2[C@@H]3CC=C4C[C@@H](O)CC[C@]4(C)[C@H]3CC[C@]12C: -8.56
- ClC(Cl)Cl: -2
- OC[C@H]1O[C@@](CO)(O[C@H]2O[C@H](CO)[C@@H](O)[C@H](O)[C@H]2O)[C@@H](O)[C@@H]1O: -4.31
- CCCCC: -0.392
- O=C(OCc1ccccc1)c1ccc(O)cc1: -7.01
- Oc1cccc(O)c1O: -17.5
- C[C@H](CCC(=O)O)[C@H]1CC[C@H]2[C@@H]3CC[C@@H]4C[C@H](O)CC[C@]4(C)[C@H]3C[C@H](O)[C@]12C: 3.72
- C=CC(C)(O)CC/C=C(\C)CCC=C(C)C (stereo not drawn): -7.81
- N[C@@H](Cc1cc(I)c(Oc2ccc(O)c(I)c2)c(I)c1)C(=O)O: -8.83
- CC(C)O: -16.4
- CO: 1.36
- CO[C@@H]1[C@H](OC(=O)/C=C/C=C/C=C/C=C/C(=O)O)CC[C@]2(CO2)[C@H]1[C@@]1(C)O[C@@H]1CC=C(C)C: -10.5
- Nc1nccs1: -5.55
